Reported IC50 values for the following compounds.
# EXPERIMENTAL_TARGET: Human MET (residues 956-1390) (Homo sapiens (Human), UniProt P08581)
# Sequence (P08581 956-1390): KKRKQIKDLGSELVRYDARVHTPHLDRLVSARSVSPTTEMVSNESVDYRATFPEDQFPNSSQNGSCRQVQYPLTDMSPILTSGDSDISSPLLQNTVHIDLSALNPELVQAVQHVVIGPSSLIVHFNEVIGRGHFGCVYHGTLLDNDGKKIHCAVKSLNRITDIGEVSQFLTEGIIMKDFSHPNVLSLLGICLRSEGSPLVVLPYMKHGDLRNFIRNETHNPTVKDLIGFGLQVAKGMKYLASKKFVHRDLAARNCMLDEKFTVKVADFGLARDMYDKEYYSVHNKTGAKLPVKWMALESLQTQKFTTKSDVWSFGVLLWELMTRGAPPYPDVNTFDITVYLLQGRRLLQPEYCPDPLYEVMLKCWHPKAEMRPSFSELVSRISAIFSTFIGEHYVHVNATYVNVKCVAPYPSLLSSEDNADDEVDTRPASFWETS
# ASSAY_COMMENT: Human Met kinase assay, HTRF KinEase (Example D-2)
# Type: biochemical
# PROTOCOL_CONDITIONS: protocol of Example D-2; read-out: c-Met IC50

Example entries and their recorded answers appear below.
SMILES_STRUCTURE | IC50
COc1cc2nccc(Oc3ccc(NC(=O)c4cn(C)c(C(=O)O)c(-c5ccc(F)cc5)c4=O)cc3F)c2nc1OC | < 0.1 µM
COc1cc2nccc(Oc3ccc(NC(=O)c4c(C)nc(C)c(-c5ccc(F)cc5CO)c4O)cc3F)c2nc1OC | < 0.1 µM
Cc1cc2c(Oc3ccc(NC(=O)c4cnc(C)c(-c5ccc(F)cc5)c4O)cc3F)ccnc2cn1 | < 0.1 µM

Read the next record carefully.
Observed IC50, Human MET (residues 956-1390) (Homo sapiens (Human), UniProt P08581), "COc1cnc2c(Oc3ccc(NC(=O)c4ccnn(-c5ccc(F)cc5C)c4=O)cc3)ccnc2c1" : 0.1 to 0.3 µM

Values from patent US12371428B2
